Sourced from PubChem BioAssay AID2685

TEST PROTOCOL: qHTS Assay for Lipid Storage Modulators in Drosophila S3 Cells
RUN CONDITIONS: BODIPY lipid droplet fluorescence, 18-24 h, cells fed with added oleic acid; series mostly up to 46.1 µM
In all, about 320,000 compounds went through this assay and about 2,100 (0.66%) were called active. Another 53% or so got no clear call; they are omitted. Calls come from the whole dose curve; as a rule, active = well fitted inhibition curve with a large enough effect in the signal ratio, with a control signal flat (not every such curve was filed as active); inconclusive = small, poorly fitted or top-dose-only effect, or effect the other way, or a change in a side signal; inactive = flat fitted curve, though single readings scatter; the % refers to the signal ratio. What follows is part of a selection rich in actives, with near analogues and random picks from the rest.
Labels: YES (active), NO (inactive)

- COMPOUND: "COc1ccc(NC2CCCN(C(=O)CN3C(=O)c4ccccc4C3=O)C2)cc1OC (stereo not drawn)"
  GROUP: "YES"
- COMPOUND: "COc1ccc(Cl)cc1C(=O)NNC(=O)c1cccnc1"
  GROUP: "NO"
- COMPOUND: "Cc1nc(NCC2CCCO2)c2nnn(Cc3c(F)cccc3Cl)c2n1 (stereo not drawn)"
  GROUP: "NO"
- COMPOUND: "Cc1ccc(NC2CCCN(C(=O)CN3C(=O)c4ccccc4C3=O)C2)cc1C (stereo not drawn)"
  GROUP: "NO"
- COMPOUND: "CC1CCN(C(=O)c2cc(Cl)nc3ccccc23)CC1"
  GROUP: "NO"
- COMPOUND: "Cc1nc2ccccc2n1CCOc1ccc(F)cc1"
  GROUP: "NO"
- COMPOUND: "COc1ccc(NC2CCCN(C(=O)CSc3ccccc3)C2)cc1 (stereo not drawn)"
  GROUP: "NO"
- COMPOUND: "COc1ccc(N(C(=O)Cn2nnc(-c3ccc(F)cc3)n2)C(C)C(=O)NC2CCCC2)cc1 (stereo not drawn)"
  GROUP: "YES"
- COMPOUND: "CC(=O)c1c(C)n(CC(=O)NCc2ccc3c(c2)OCO3)c2ccccc12"
  GROUP: "NO"
- COMPOUND: "COc1ccc(N(C(C)C(=O)NC2CCCCCC2)S(C)(=O)=O)cc1 (stereo not drawn)"
  GROUP: "YES"
- COMPOUND: "CCN(CC)S(=O)(=O)c1c(OC)cc(C)c(Cl)c1C"
  GROUP: "NO"
- COMPOUND: "COc1ccc(NC2CCCN(C(=O)c3ccncc3)C2)cc1 (stereo not drawn)"
  GROUP: "NO"
- COMPOUND: "O=C1CC(N2CCN(c3ccc(F)cc3)CC2)C(=O)N1c1ccc(F)cc1 (stereo not drawn)"
  GROUP: "NO"
- COMPOUND: "O=C(OC(C(=O)Nc1ccc(Cl)cc1C(F)(F)F)c1ccccc1)C1=COCCO1 (stereo not drawn)"
  GROUP: "NO"
- COMPOUND: "O=[N+]([O-])c1ccc(S(=O)(=O)NCCc2ccncc2)cc1"
  GROUP: "NO"
- COMPOUND: "CC(=O)C(=Cc1ccc(O)cc1)C(C)=O"
  GROUP: "NO"
- COMPOUND: "COc1ccc(N(CC(=O)NC2CCCC2)C(=O)Cn2nnc(-c3ccc(F)cc3)n2)cc1"
  GROUP: "NO"
- COMPOUND: "O=[N+]([O-])c1cccc(S(=O)(=O)NCCc2ccccc2)c1"
  GROUP: "NO"
- COMPOUND: "O=[N+]([O-])c1cccc(S(=O)(=O)NCc2ccncc2)c1"
  GROUP: "YES"
- COMPOUND: "CC(=O)NCCC(=O)Nc1nc(-c2cccs2)c(-c2cccs2)s1"
  GROUP: "NO"
- COMPOUND: "COc1ccc(NC2CCCN(C(=O)CCOc3ccccc3)C2)cc1 (stereo not drawn)"
  GROUP: "NO"
- COMPOUND: "CC(C(=O)NC1CCCC1)N(c1ccc(Oc2ccccc2)cc1)S(C)(=O)=O (stereo not drawn)"
  GROUP: "NO"
- COMPOUND: "CCc1cccc(NC(=O)CCCN2C(=O)C(c3ccccc3)Oc3cccnc32)c1 (stereo not drawn)"
  GROUP: "YES"
